Biological target: human ether-à-go-go-related gene (hERG) potassium channel (human, UniProt Q12809);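 further: peak tail current of the secondary pulse compared with the same well before compound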
Sequence (Q12809 whole entry, looked up): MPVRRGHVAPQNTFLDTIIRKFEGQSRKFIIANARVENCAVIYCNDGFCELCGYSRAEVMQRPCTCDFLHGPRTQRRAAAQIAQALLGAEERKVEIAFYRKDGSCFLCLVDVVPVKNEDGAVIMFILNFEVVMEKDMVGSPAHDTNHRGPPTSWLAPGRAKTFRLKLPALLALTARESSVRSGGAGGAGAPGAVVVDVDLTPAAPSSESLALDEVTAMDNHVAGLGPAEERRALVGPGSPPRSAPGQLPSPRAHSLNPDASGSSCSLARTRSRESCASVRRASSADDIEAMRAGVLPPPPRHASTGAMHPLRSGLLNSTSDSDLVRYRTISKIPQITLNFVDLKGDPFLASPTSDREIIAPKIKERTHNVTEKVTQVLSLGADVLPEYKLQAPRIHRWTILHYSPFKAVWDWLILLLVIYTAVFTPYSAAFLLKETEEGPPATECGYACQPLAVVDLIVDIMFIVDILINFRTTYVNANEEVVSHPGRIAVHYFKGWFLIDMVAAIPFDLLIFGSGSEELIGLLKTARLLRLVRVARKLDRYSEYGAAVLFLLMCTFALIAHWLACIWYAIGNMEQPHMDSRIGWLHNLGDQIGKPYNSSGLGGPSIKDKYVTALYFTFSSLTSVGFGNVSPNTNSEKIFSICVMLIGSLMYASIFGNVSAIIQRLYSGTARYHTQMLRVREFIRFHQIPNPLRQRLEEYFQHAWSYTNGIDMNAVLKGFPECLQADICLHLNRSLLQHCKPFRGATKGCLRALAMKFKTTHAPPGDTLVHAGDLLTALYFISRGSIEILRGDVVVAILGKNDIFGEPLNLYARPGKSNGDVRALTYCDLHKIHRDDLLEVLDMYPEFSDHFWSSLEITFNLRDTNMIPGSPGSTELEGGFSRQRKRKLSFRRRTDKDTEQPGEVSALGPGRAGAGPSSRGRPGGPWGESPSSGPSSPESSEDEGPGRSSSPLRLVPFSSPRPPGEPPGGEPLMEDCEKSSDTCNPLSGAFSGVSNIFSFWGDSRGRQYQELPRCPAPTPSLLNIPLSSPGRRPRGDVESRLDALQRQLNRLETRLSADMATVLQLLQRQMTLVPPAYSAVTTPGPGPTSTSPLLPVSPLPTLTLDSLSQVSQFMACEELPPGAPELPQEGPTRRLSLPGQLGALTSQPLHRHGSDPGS
Experiment: primary screen, population patch clamp on CHO cells stably expressing hERG; higher = less effect of the substance
Out of some 310,000 compounds screened, about 14,000 (4.5%) showed an effect of 50% or more. The effect is printed as a negative number. The sample as a whole holds a higher share of strong results than the screen did.
Readout: hERG current change (%, negative = inhibition) at 10uM (%)
Respond with the bare value in %.

Query: Endpoint output: hERG current change (%, negative = inhibition) at 10uM of COC(=O)C1=C2c3[nH]c4ccccc4c3CCN2C(=O)CC1 . Value?
Result: -23.1

Query: Endpoint output: hERG current change (%, negative = inhibition) at 10uM of CN(C)C1=NCCN1CCc1ccc(F)cc1 . Value?
Result: -9.03

Query: Endpoint output: hERG current change (%, negative = inhibition) at 10uM of Cl.OC(CCCN1CCCCC1)(c1ccccc1)c1ccccc1 . Value?
Result: -44

Query: Endpoint output: hERG current change (%, negative = inhibition) at 10uM of COc1ccc(NCC(=O)N/N=C/c2cc([N+](=O)[O-])ccc2N2CCCC2)cc1 . Value?
Result: -7.82

Query: Endpoint output: hERG current change (%, negative = inhibition) at 10uM of CC1(C)CC(O)C(C)(C)N1O (stereo not shown) . Value?
Result: 3.9

Query: Endpoint output: hERG current change (%, negative = inhibition) at 10uM of CCOC(=O)C1CCCCC12C(C#N)=C(N)Oc1n[nH]c(C)c12 (stereo not shown) . Value?
Result: 10.1

Query: Endpoint output: hERG current change (%, negative = inhibition) at 10uM of CCCCCCC(O)(CCN1CCCCC1)c1ccccc1.Cl (stereo not shown) . Value?
Result: -70.3

Query: Endpoint output: hERG current change (%, negative = inhibition) at 10uM of NCCCC[C@H]1CN=C(N)N1CCCCC1CCCCC1 . Value?
Result: -3.84

Query: Endpoint output: hERG current change (%, negative = inhibition) at 10uM of CCc1ccc(CNC(=O)c2ccc(NC(=O)C3=CSCCO3)cc2)cc1 . Value?
Result: -23

Query: Endpoint output: hERG current change (%, negative = inhibition) at 10uM of CCCCCC(O)(CCN1CCCCC1)c1ccc(OCC)cc1.Cl (stereo not shown) . Value?
Result: -77.1

Query: Endpoint output: hERG current change (%, negative = inhibition) at 10uM of CSc1nnc(NC(=O)c2ccc(C)c(S(=O)(=O)N3CCOCC3)c2)s1 . Value?
Result: 0.594

Query: Endpoint output: hERG current change (%, negative = inhibition) at 10uM of O=C1NCCN(Cc2ccoc2)C1CC(=O)N(Cc1ccccc1)CC1CCC1 (stereo not shown) . Value?
Result: 8.87

Query: Endpoint output: hERG current change (%, negative = inhibition) at 10uM of C=CCC(O)(CCN1CCCCC1)c1ccccc1.Cl (stereo not shown) . Value?
Result: -10.8

Query: Endpoint output: hERG current change (%, negative = inhibition) at 10uM of CC(=O)N1c2ccc(S(=O)(=O)N3CCC(C(=O)NC4CCC(C)CC4)CC3)cc2CC1C (stereo not shown) . Value?
Result: 17.3

Query: Endpoint output: hERG current change (%, negative = inhibition) at 10uM of O=C(O)c1ccc(/C=N/N2CCN(C3c4ccccc4-c4ccccc43)CC2)cc1 . Value?
Result: 12.1

Query: Endpoint output: hERG current change (%, negative = inhibition) at 10uM of CCOC(=O)c1cccc(NC(=O)c2cc3ccccc3o2)c1 . Value?
Result: 1.39

Query: Endpoint output: hERG current change (%, negative = inhibition) at 10uM of CN(CCC#N)C(=O)CSc1nc2scc(-c3ccccc3)c2c(=O)[nH]1 . Value?
Result: -12.6

Query: Endpoint output: hERG current change (%, negative = inhibition) at 10uM of Cc1ccccc1CN(c1ccc(C(=O)Nc2cccnc2)cc1)S(C)(=O)=O . Value?
Result: -9.59

Query: Endpoint output: hERG current change (%, negative = inhibition) at 10uM of CCC(O)(CCN1CCCCC1)c1ccccc1 (stereo not shown) . Value?
Result: -5.84

Query: Endpoint output: hERG current change (%, negative = inhibition) at 10uM of CC1CCN(C2(O)C(=O)Nc3ccc(Cl)cc32)CC1 (stereo not shown) . Value?
Result: 4.26

Query: Endpoint output: hERG current change (%, negative = inhibition) at 10uM of COc1ccc(C(O)(CCc2ccccc2)CCN2CCCCC2)cc1.Cl (stereo not shown) . Value?
Result: -17.5

Query: Endpoint output: hERG current change (%, negative = inhibition) at 10uM of CC(c1ccccc1)C1CC(=O)N(Cc2ccco2)C1=O (stereo not shown) . Value?
Result: 25.9

###

Molecular target: human ether-à-go-go-related gene (hERG) potassium channel (human);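 further: peak tail current of the secondary pulse compared with the same well before compound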
Experiment: primary screen, population patch clamp on CHO cells stably expressing hERG; higher = less effect of the substance
Hit rate of the full screen: of about 310,000 compounds, about 14,000 (4.5%) showed an effect of 50% or more. Effects have a minus sign here. The list comes from a sample in which strong results are over-represented; it also holds close analogues and randomly drawn compounds.
Exercise: state measured hERG current change (%, negative = inhibition) at 10uM for each of the compounds provided.
Respond with the bare value in %.

Query: Provide value of hERG current change (%, negative = inhibition) at 10uM for this record tested with human ether-à-go-go-related gene (hERG) potassium channel (human): Cc1[nH]c2ccccc2c1C(=O)CN1CCSCC1
Result: 5.84

Query: Provide value of hERG current change (%, negative = inhibition) at 10uM for this record tested with human ether-à-go-go-related gene (hERG) potassium channel (human): COc1cc2c(cc1NC(=O)C(C)OC(=O)c1ccc(S(=O)(=O)Nc3ccccc3Cl)cc1)oc1ccccc12 (centres unmarked)
Result: 21.8

Query: Provide value of hERG current change (%, negative = inhibition) at 10uM for this record tested with human ether-à-go-go-related gene (hERG) potassium channel (human): CCOC(=O)c1[nH]c2ccc(F)cc2c1NC(=O)CN1CCc2cc(OC)c(OC)cc2C1
Result: -0.0862

Query: Provide value of hERG current change (%, negative = inhibition) at 10uM for this record tested with human ether-à-go-go-related gene (hERG) potassium channel (human): Cc1[nH]c2ccccc2c1C(=O)CN1CC=C(c2ccccc2)CC1
Result: -52.4

Query: Provide value of hERG current change (%, negative = inhibition) at 10uM for this record tested with human ether-à-go-go-related gene (hERG) potassium channel (human): Cc1[nH]c2ccccc2c1C(=O)CN1CCCC1
Result: 5.09

###

Molecular target: human ether-à-go-go-related gene (hERG) potassium channel (human);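 further: peak tail current of the secondary pulse compared with the same well before compound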
Test: primary screen, population patch clamp on CHO cells stably expressing hERG; higher = less effect of the substance
Method: Briefly, Chinese hamster ovary (CHO) cells stably expressing the hERG channel were dislodged from tissue culture flasks and dispensed into PPC plates. […] During the recording, background leak currents were estimated by a 100 ms step to -80 mV from an initial holding potential of -70 mV and subtracted from the subsequent current measurement. The campaign was conducted in two phases using slight differences in recording protocol. […]
Hit rate of the full screen: of about 310,000 compounds, about 14,000 (4.5%) showed an effect of 50% or more. Effects have a minus sign here. The sample as a whole holds a higher share of strong results than the screen did.
Readout: hERG current change (%, negative = inhibition) at 10uM (%)
Respond with the bare value in %.

Query: Endpoint output: hERG current change (%, negative = inhibition) at 10uM of COc1ccccc1NC(=O)COc1ccc(Br)cc1CNCCCN1CCOCC1.Cl . Value?
Result: -58.6

Query: Endpoint output: hERG current change (%, negative = inhibition) at 10uM of COc1ccccc1NC(=O)COc1cc(Br)c(CNCCCN2CCOCC2)cc1OC . Value?
Result: -54.6

Query: Endpoint output: hERG current change (%, negative = inhibition) at 10uM of O=C(CN1CCOCC1)Nc1ccc(OCc2ccccc2)cc1 . Value?
Result: -21.3

Query: Endpoint output: hERG current change (%, negative = inhibition) at 10uM of COc1cc(C(=O)Nc2ccccc2N2CCOCC2)ccc1OCc1c(C)noc1C . Value?
Result: -28.8

Query: Endpoint output: hERG current change (%, negative = inhibition) at 10uM of CN1CCN(CC(=O)Nc2ccc(OCc3ccccc3)cc2)CC1.Cl . Value?
Result: -9.11

Query: Endpoint output: hERG current change (%, negative = inhibition) at 10uM of Cc1cccc(C)c1NC(=O)N1CCC(C(=O)c2ccc(F)cc2)CC1 . Value?
Result: -22.6

Query: Endpoint output: hERG current change (%, negative = inhibition) at 10uM of O=C1NC(=O)C(=Cc2ccc(N3CCOCC3)cc2)C(=O)N1 . Value?
Result: 12.9

Query: Endpoint output: hERG current change (%, negative = inhibition) at 10uM of COc1ccc(OC)c(S(=O)(=O)N(C)CC(=O)Nc2ccccc2OC)c1 . Value?
Result: -20.2

Query: Endpoint output: hERG current change (%, negative = inhibition) at 10uM of COc1cc(CNCCCN2CCOCC2)c(Br)cc1OCC(=O)Nc1ccccc1C . Value?
Result: -15.3

Query: Endpoint output: hERG current change (%, negative = inhibition) at 10uM of COc1ccc(CCN(Cc2nc(-c3ccccc3)no2)Cc2nc(-c3ccccc3)no2)cc1OC . Value?
Result: -3.37

Query: Endpoint output: hERG current change (%, negative = inhibition) at 10uM of CCOc1cc2nc(-c3ccc(OC)c(OC)c3)nc(N3CCOCC3)c2cc1OC . Value?
Result: -15.5

Query: Endpoint output: hERG current change (%, negative = inhibition) at 10uM of O=C(CN1CCN(c2ccccn2)CC1)Nc1ccc(OCc2ccccc2)cc1 . Value?
Result: -45.3

Query: Endpoint output: hERG current change (%, negative = inhibition) at 10uM of O=C(COc1ccc(Br)cc1CNCCCN1CCOCC1)Nc1ccccc1 . Value?
Result: -47.8

Query: Endpoint output: hERG current change (%, negative = inhibition) at 10uM of COc1cc(CNCCCN2CCOCC2)c(Br)cc1OC(C)C.Cl . Value?
Result: 5.58

Query: Endpoint output: hERG current change (%, negative = inhibition) at 10uM of CC(C)(C)C(=O)Nc1c2c(nn1-c1ccc(F)cc1)CSC2 . Value?
Result: 13.4

Query: Endpoint output: hERG current change (%, negative = inhibition) at 10uM of C=CCOc1ccc(Br)cc1CNCCCN1CCOCC1.Cl . Value?
Result: -27.7

Query: Endpoint output: hERG current change (%, negative = inhibition) at 10uM of CN1CCN(c2nc3c(c(=O)n(C)c(=O)n3C)n2Cc2ccc(Cl)cc2)CC1 . Value?
Result: -39.5

Query: Endpoint output: hERG current change (%, negative = inhibition) at 10uM of O=C(CN1CCN(CC(=O)Nc2ccc(OCc3ccccc3)cc2)CC1)Nc1ccc(F)cc1 . Value?
Result: -72.5

Query: Endpoint output: hERG current change (%, negative = inhibition) at 10uM of O=C(Cn1c(-c2cscn2)nc2ccccc21)Nc1ccc(Cl)cc1 . Value?
Result: -7.59

Query: Endpoint output: hERG current change (%, negative = inhibition) at 10uM of CN(C)c1ccc(C(=O)c2ccc(N(C)C)c(N)c2)cc1N . Value?
Result: -3.79
